This collection of values is drawn from ChEMBL document CHEMBL1139071.

organism: Rattus norvegicus; experiment: Inhibition of rat intestinal alpha-glucosidase at 100 uM
Threshold rule: inhibition greater than or equal to 70% is Y; below that, N.

>>> label("CCOC(=O)[C@H]1[C@H](C2O[C@@H]3OC(C)(C)O[C@@H]3[C@H]2OCc2ccccc2)[C@@H](C(=O)OCC)N[C@H]1c1ccc(Br)cc1 (single isomer, unassigned)")
"Y"
>>> label("CCOC(=O)[C@H]1[C@H](C2O[C@@H]3OC(C)(C)O[C@@H]3[C@H]2OCc2ccccc2)[C@@H](C(=O)OCC)N[C@H]1c1cc(Cl)ccc1Cl (single isomer, unassigned)")
"N"
>>> label("CCOC(=O)[C@H]1[C@H](C2O[C@@H]3OC(C)(C)O[C@@H]3[C@H]2OCc2ccccc2)[C@@H](C(=O)O)N[C@H]1c1cccnc1 (single isomer, unassigned)")
"N"
>>> label("C[C@H]1O[C@H](O[C@H]2[C@H](O)[C@@H](O)[C@@H](O[C@H]3[C@H](O)[C@@H](O)C(O)O[C@@H]3CO)O[C@@H]2CO)[C@H](O)[C@@H](O)[C@@H]1N[C@H]1C=C(CO)[C@@H](O)[C@H](O)[C@H]1O (stereo not given in full)")
"N"
>>> label("CCOC(=O)[C@H]1[C@H](C2O[C@@H]3OC(C)(C)O[C@@H]3[C@H]2OCc2ccccc2)[C@@H](C(=O)OCC)N[C@H]1c1cccc(Cl)c1 (single isomer, unassigned)")
"N"
